# measured.on: Calcium-dependent protein kinase 4 (Plasmodium falciparum (isolate 3D7))
# experiment.description: PfCDPK4 kinase inhibitors, biochemical, TCAMS library (AID 1159588)
# experimental.context: recombinant PfCDPK4, Kinase-Glo ATP depletion luminescence
Measured potencies and affinities stand elsewhere. The source made the active and inactive calls. The limit is not given here; nearly all actives have IC50 up to about 0.91 µM.
property.label: outcome

Cc1ccc(-n2cc(CNCC3CCN(CCO)CC3)c(-c3ccc(F)cc3)n2)cc1 ... inactive
CCN1CCN(c2cc(C)c3cc(NC(=O)c4cccc(C(F)(F)F)c4)ccc3n2)CC1 ... inactive
COc1ccc(NC(=O)c2cc(NC(=O)C3(N)CC3)c(=O)n(Cc3ccc(C(N)=O)cc3)c2)cc1 ... inactive
CC(C)CNCc1cccc(-c2cccc(CN(CCN(C)C)C(=O)Nc3ccccc3)c2)c1 ... inactive
COc1ccc(CN2CCC(NCc3cccc(-n4ccnc4)c3)CC2)cc1 ... inactive
COc1ccc(CCN(C)CCCOc2ccc(NC(=O)COc3cccc4sc5ccccc5c(=O)c34)cc2)cc1OC ... inactive

Input line: Please provide the recorded outcome for "Cc1cc(NN=Cc2cccc(Cl)c2)c2ccccc2n1" , tested on Calcium-dependent protein kinase 4 (Plasmodium falciparum (isolate 3D7)).
Output line: inactive

Input line: Please provide the recorded outcome for "CC(C)(C)c1nn(-c2ccccc2)c2[nH]c(=O)c(CNC3CCCCC3)cc12" , tested on Calcium-dependent protein kinase 4 (Plasmodium falciparum (isolate 3D7)).
Output line: inactive

Input line: Please provide the recorded outcome for "O=C(Nc1ccc(Cn2ncc(N3CCCNCC3)c(Cl)c2=O)cc1)Nc1ccc(F)cc1[N+](=O)[O-]" , tested on Calcium-dependent protein kinase 4 (Plasmodium falciparum (isolate 3D7)).
Output line: inactive
